tgt: Human neutrophil elastase (HNE) (Homo sapiens, UniProt P08246)
Construct: gene ELANE; isolated enzyme, single polypeptide chain
Sequence (P08246 30-247): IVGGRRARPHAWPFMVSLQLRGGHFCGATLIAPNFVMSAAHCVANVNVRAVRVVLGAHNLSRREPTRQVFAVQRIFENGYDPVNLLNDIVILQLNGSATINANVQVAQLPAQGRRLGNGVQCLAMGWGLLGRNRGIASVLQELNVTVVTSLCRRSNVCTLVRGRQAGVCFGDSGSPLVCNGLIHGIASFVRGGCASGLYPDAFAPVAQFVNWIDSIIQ
test.summary: fluorometric protease assay, MeO-Suc-Ala-Ala-Pro-Val-AMC
Type: biochemical
conditions: read-out: IC50 ± SD
In this section, each of the compounds is paired with its reported IC50.
Number first, unit second.

Illustrative cases are given below, each with its answer.
>>> experimental_value("CCC1(CC)C(=O)N(c2ccc(C(=O)O)cc2)C1=O")
"14.7 nM"
>>> experimental_value("CCC1(CC)C(=O)N(c2ccc(C(=O)OCc3ccccc3)cc2)C1=O")
"0.96 nM"

// IC50 lookup, key: `CCC1(CC)C(=O)N(c2ccc(COc3ccc4ccc(=O)oc4c3)cc2)C1=O` 0.42 nM

// IC50 lookup, key: `CCC1(CC)C(=O)N(c2ccc(CBr)cc2)C1=O` 0.64 nM

// data source = paper PMC7238052
